Catalogue of compounds with associated pEC50
# TESTED TARGET: human Oxytocin (OTR) receptor (Homo sapiens, UniProt P30559)
# Sequence (P30559 1-389): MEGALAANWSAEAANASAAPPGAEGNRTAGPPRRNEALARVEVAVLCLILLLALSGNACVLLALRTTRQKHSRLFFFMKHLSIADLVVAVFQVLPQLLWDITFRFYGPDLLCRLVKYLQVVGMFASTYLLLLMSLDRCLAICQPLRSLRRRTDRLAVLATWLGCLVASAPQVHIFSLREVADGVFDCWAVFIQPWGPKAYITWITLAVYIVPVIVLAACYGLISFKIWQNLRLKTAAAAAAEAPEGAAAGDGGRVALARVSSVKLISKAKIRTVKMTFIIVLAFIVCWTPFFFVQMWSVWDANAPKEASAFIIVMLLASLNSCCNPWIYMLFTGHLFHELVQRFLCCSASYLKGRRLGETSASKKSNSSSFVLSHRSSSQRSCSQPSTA
# PROCEDURE SUMMARY: Calcium flux assay (FLIPR), agonist mode, CHO cells expressing human OTR
# COND: CHO cells stably expressing human OTR; calcium flux; read-out: hOT EC50
Positions of bridges follow the written chain, without caps; N, C: chain ends. Non-standard residues stand in square brackets, D forms with d. Residues, ends and D or L forms follow the SMILES beside them. Aoc(2) = CCCCCC[C@H](N)C(=O)O; Nle = CCCC[C@H](N)C(=O)O; Dab = NCC[C@H](N)C(=O)O; Sar = CNCC(=O)O
A value of pEC50 is the negative decimal logarithm of a concentration given in moles per litre.

Consider the worked cases shown below.
- CC[C@H](C)[C@@H]1NC(=O)[C@H](Cc2ccc(O)cc2)NC(=O)CNC(=O)CC[C@@H](C(=O)N(C)CC(=O)N[C@@H](CCN)C(=O)NCC(N)=O)NC(=O)[C@H](CC(N)=O)NC(=O)[C@H](CCC(N)=O)NC1=O [Example 30] (GYIQNE[Sar][Dab]G-NH2; lactam N-6): 8.22
- CC[C@H](C)[C@@H]1NC(=O)[C@H](Cc2ccc(O)cc2)NC(=O)CNC(=O)CC[C@@H](C(=O)N2CCC[C@H]2C(=O)N[C@@H](CC(C)C)C(=O)NCC(N)=O)NC(=O)[C@H](CC(N)=O)NC(=O)[C@H](Cc2cnc[nH]2)NC1=O [Example 9] (GYIHNEPLG-NH2; lactam N-6): 6.93
- CC[C@H](C)[C@@H]1NC(=O)[C@H](Cc2ccc(O)cc2)NC(=O)CNC(=O)CC[C@@H](C(=O)N2CCC[C@H]2C(=O)N[C@H](CC(C)C)C(=O)NCC(N)=O)NC(=O)[C@H](CC(N)=O)NC(=O)[C@H](CCC(N)=O)NC1=O [Example 15] (GYIQNEP[dL]G-NH2; lactam N-6): 7.28

Which measured pEC50 belongs to CC[C@H](C)[C@@H]1NC(=O)[C@H](Cc2ccc(O)cc2)NC(=O)CNC(=O)CC[C@@H](C(=O)N(C)CC(=O)N[C@@H](CC(C)C)C(=O)NCC(N)=O)NC(=O)[C@H](CC(N)=O)NC(=O)[C@H](C(C)C)NC1=O [Example 55] (GYIVNE[Sar]LG-NH2; lactam N-6) , tested on human Oxytocin (OTR) receptor (Homo sapiens, UniProt P30559)?
7.70

Next up: CCCCCC[C@H](NC(=O)CN(C)C(=O)[C@@H]1CCC(=O)NCC(=O)N[C@@H](Cc2ccc(O)cc2)C(=O)N[C@@H]([C@@H](C)CC)C(=O)N[C@@H](CCC(N)=O)C(=O)N[C@@H](CC(N)=O)C(=O)N1)C(=O)NCC(N)=O [Example 53] (GYIQNE[Sar][Aoc(2)]G-NH2; lactam N-6)
8.96

Next up: CC[C@H](C)[C@@H]1NC(=O)[C@H](Cc2ccc(O)cc2)NC(=O)CNC(=O)CC[C@H](C(=O)N2CCC[C@H]2C(=O)N[C@@H](CC(C)C)C(=O)NCC(N)=O)NC(=O)[C@H](CC(N)=O)NC(=O)[C@H](CCC(N)=O)NC1=O [Example 14] (GYIQN[dE]PLG-NH2; lactam N-6)
6.60

Next up: CCCC[C@H](NC(=O)CN(C)C(=O)[C@@H]1CCC(=O)NCC(=O)N[C@@H](Cc2ccc(O)cc2)C(=O)N[C@@H]([C@@H](C)CC)C(=O)N[C@@H](CCC(N)=O)C(=O)N[C@@H](CC(N)=O)C(=O)N1)C(=O)NCC(N)=O [Example 40] (GYIQNE[Sar][Nle]G-NH2; lactam N-6)
9.40

###

# TESTED TARGET: UniProt:P30559
# PROCEDURE SUMMARY: Calcium flux assay (FLIPR), agonist mode, CHO cells expressing human OTR
# COND: CHO cells stably expressing human OTR; calcium flux; read-out: hOT EC50
pEC50: −log10 of the molar value. Positions of bridges follow the written chain, without caps; N, C: chain ends. Non-standard residues stand in square brackets, D forms with d. Residues, ends and D or L forms follow the SMILES beside them. hLeu = CC(C)CC[C@H](N)C(=O)O; Sar = CNCC(=O)O
MEASURE: pEC50

Consider the worked cases shown below.
• CC[C@H](C)[C@@H]1NC(=O)[C@H](Cc2ccc(O)cc2)NC(=O)CNC(=O)CC[C@@H](C(=O)N(C)CC(=O)N[C@@H](Cc2ccc(O)cc2)C(=O)NCC(N)=O)NC(=O)[C@H](CC(N)=O)NC(=O)[C@H](CCC(N)=O)NC1=O [Example 32] (GYIQNE[Sar]YG-NH2; lactam N-6) = 8.40
• CC[C@H](C)[C@@H]1NC(=O)[C@H](Cc2ccc(O)cc2)NC(=O)CNC(=O)CC[C@@H](C(=O)N[C@@H](C)C(=O)N[C@@H](CC(C)C)C(=O)NCC(N)=O)NC(=O)[C@H](CC(N)=O)NC(=O)[C@H](CCC(N)=O)NC1=O [Example 17] (GYIQNEALG-NH2; lactam N-6) = 7.35
• CC[C@H](C)[C@@H]1NC(=O)[C@H](Cc2ccc(O)cc2)NC(=O)CNC(=O)CC[C@@H](C(=O)N(C)CC(=O)N[C@@H](CCC(C)C)C(=O)NCC(N)=O)NC(=O)[C@H](CC(N)=O)NC(=O)[C@H](CCC(N)=O)NC1=O [Example 43] (GYIQNE[Sar][hLeu]G-NH2; lactam N-6) = 7.59
• CC[C@H](C)[C@@H]1NC(=O)[C@H](Cc2ccc(O)cc2)NC(=O)CNC(=O)CC[C@@H](C(=O)N2CCC[C@H]2C(=O)N[C@@H](CC(C)C)C(=O)NCC(N)=O)NC(=O)[C@H](CC(N)=O)NC(=O)[C@H](CCC(N)=O)NC1=O [Example 24] (GYIQNEPLG-NH2; lactam N-6) = 8.66
• CC[C@H](C)[C@@H]1NC(=O)[C@H](Cc2ccc(O)cc2)NC(=O)CNC(=O)CC[C@@H](C(=O)N(C)CC(=O)N[C@@H](CCC(N)=O)C(=O)NCC(N)=O)NC(=O)[C@H](CC(N)=O)NC(=O)[C@H](CCC(N)=O)NC1=O [Example 31] (GYIQNE[Sar]QG-NH2; lactam N-6) = 8.05

1 = CC[C@H](C)[C@@H]1NC(=O)[C@H](Cc2ccc(O)cc2)NC(=O)CNC(=O)CC[C@@H](C(=O)N(C)CC(=O)N[C@@H](CO)C(=O)NCC(N)=O)NC(=O)[C@H](CC(N)=O)NC(=O)[C@H](CCC(N)=O)NC1=O [Example 28] (GYIQNE[Sar]SG-NH2; lactam N-6)
2 = CC[C@H](C)[C@@H]1NC(=O)[C@H](Cc2ccc(O)cc2)NC(=O)CNC(=O)CC[C@@H](C(=O)NCC(=O)N[C@@H](CC(C)C)C(=O)NCC(N)=O)NC(=O)[C@H](CC(N)=O)NC(=O)[C@H](CCC(N)=O)NC1=O [Example 6] (GYIQNEGLG-NH2; lactam N-6)
Identify the entry with the larger pEC50. Options: 1 and 2 Kindly give the label for the entry you pick.
1
(1: 8.30, 2: 7.96)

###

# TESTED TARGET: human V1a receptor (Homo sapiens)
# Sequence (P37288 whole entry): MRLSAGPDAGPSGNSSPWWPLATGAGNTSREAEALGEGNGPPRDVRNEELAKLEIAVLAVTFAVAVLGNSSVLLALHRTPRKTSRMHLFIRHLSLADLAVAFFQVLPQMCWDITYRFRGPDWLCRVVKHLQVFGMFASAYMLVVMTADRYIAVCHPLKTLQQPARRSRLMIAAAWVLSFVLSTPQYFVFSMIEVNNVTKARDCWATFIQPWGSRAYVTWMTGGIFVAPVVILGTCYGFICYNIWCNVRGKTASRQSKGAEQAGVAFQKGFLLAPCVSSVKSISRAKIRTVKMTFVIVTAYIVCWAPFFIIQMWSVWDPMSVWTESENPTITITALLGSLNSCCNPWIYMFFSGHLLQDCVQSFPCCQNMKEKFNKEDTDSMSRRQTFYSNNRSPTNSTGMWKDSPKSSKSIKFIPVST
# PROCEDURE SUMMARY: Calcium flux assay (FLIPR), agonist mode, CHO cells expressing human V1a
# COND: CHO cells stably expressing human V1a; calcium flux; read-out: hV1a EC50
Positions of bridges follow the written chain, without caps; N, C: chain ends. Non-standard residues stand in square brackets, D forms with d. Residues, ends and D or L forms follow the SMILES beside them. Phe(4-NH2) = Nc1ccc(C[C@H](N)C(=O)O)cc1; aThr = C[C@H](O)[C@H](N)C(=O)O; Dab = NCC[C@H](N)C(=O)O; Sar = CNCC(=O)O
Catalogue of molecules with associated EC50

Consider the worked cases shown below.
• CC[C@H](C)[C@@H]1NC(=O)[C@H](Cc2ccc(N)cc2)NC(=O)CNC(=O)CC[C@@H](C(=O)N2CCC[C@H]2C(=O)N[C@@H](CC(C)C)C(=O)NCC(N)=O)NC(=O)[C@H](CC(N)=O)NC(=O)[C@H](CCC(N)=O)NC1=O [Example 10] (G[Phe(4-NH2)]IQNEPLG-NH2; lactam N-6) = > 2.7 µM
• CC[C@H](C)[C@@H]1NC(=O)[C@H](Cc2ccc(O)cc2)NC(=O)CNC(=O)CC[C@@H](C(=O)N(C)CC(=O)N[C@@H](CCN)C(=O)NCC(N)=O)NC(=O)[C@H](CC(N)=O)NC(=O)[C@H](CCC(N)=O)NC1=O [Example 30] (GYIQNE[Sar][Dab]G-NH2; lactam N-6) = > 10 µM
• CC[C@H](C)[C@@H]1NC(=O)[C@H](Cc2ccc(O)cc2)NC(=O)CNC(=O)CC[C@@H](C(=O)N(C)CC(=O)N[C@H](C(=O)NCC(N)=O)[C@H](C)O)NC(=O)[C@H](CC(N)=O)NC(=O)[C@H](CCC(N)=O)NC1=O [Example 25] (GYIQNE[Sar][aThr]G-NH2; lactam N-6) = > 10 µM
• CC[C@H](C)[C@@H]1NC(=O)[C@H](Cc2ccc(O)cc2)NC(=O)CNC(=O)CC[C@@H](C(=O)N(C)CC(=O)N[C@@H](Cc2ccc(O)cc2)C(=O)NCC(N)=O)NC(=O)[C@H](CC(N)=O)NC(=O)[C@H](CCC(N)=O)NC1=O [Example 32] (GYIQNE[Sar]YG-NH2; lactam N-6) = > 10 µM

Now take the following molecule into account.
Can you share its EC50? I mean this molecule: CC[C@H](C)[C@@H]1NC(=O)[C@H](Cc2ccc(O)cc2)NC(=O)CNC(=O)CC[C@@H](C(=O)N(C)CC(=O)N[C@@H](CC(C)C)C(=O)NCC(N)=O)NC(=O)[C@H](CC(N)=O)NC(=O)[C@H](CCC(N)=O)NC1=O [Example 13] (GYIQNE[Sar]LG-NH2; lactam N-6)
> 27 µM
